These entries and their values trace back to patent US20250270343A1.

Target: T1, full-length untagged human GPNMB expressed on cells (human, UniProt Q14956 23-572)
T1 construct: also used here for GPNMB on human monocyte-derived macrophages in the functional assays; also called huGPNMB; Freestyle293-huGPNMB+
T1 sequence: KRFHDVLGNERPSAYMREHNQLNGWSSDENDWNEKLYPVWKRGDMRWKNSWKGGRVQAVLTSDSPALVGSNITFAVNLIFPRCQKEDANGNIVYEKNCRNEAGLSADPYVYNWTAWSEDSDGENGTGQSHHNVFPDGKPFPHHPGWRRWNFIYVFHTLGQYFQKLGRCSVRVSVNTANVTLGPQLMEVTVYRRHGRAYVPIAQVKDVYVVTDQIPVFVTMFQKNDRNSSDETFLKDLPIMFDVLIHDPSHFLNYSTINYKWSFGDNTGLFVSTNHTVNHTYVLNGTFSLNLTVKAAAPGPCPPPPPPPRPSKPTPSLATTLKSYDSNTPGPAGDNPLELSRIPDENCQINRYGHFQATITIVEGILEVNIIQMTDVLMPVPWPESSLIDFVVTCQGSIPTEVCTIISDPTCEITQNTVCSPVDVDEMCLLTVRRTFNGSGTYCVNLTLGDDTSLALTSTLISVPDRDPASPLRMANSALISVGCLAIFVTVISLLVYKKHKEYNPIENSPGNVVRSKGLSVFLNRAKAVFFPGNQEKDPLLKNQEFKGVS
Experiment: FACS titration, FS293-huGPNMB+ cells
READOUT_LABEL: pEC50
Please report pEC50 as the negative decimal logarithm of the molar concentration, giving only the number.

Here are 2 binders together with their reported answers.
BINDER: anti-GPNMB antibody GPN-96 (antibody, V domains shown) VH: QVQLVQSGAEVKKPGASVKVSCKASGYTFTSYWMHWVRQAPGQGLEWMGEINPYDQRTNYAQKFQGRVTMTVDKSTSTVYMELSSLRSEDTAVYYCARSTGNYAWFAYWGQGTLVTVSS VL: DIVMTQSPDSLAVSLGERATINCKASQDVSPSLAWYQQKPGQPPKLLIYRASYRYTGVPDRFSGSGSGTDFTLTISSLQAEDVAVYYCQQHYSIPLTFGGGTKVEIK
RECORDED_RESULT: 9.19
--
BINDER: anti-GPNMB antibody GPN-90 (antibody, V domains shown) VH: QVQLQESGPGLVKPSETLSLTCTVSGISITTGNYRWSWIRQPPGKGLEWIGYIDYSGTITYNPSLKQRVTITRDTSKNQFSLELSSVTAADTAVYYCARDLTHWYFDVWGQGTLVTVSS VL: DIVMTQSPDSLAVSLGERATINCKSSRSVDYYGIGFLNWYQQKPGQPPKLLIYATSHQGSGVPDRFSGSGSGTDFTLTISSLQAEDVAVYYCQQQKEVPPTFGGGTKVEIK
RECORDED_RESULT: 9.83

Prompt: Let me know recorded pEC50 for anti-GPNMB antibody GPN-86 (antibody, V domains shown) VH: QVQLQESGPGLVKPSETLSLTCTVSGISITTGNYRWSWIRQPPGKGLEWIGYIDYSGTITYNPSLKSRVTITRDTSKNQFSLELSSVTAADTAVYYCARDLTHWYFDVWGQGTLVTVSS VL: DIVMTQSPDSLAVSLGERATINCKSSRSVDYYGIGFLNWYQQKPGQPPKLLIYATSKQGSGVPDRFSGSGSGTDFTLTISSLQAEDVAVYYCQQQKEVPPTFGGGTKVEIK , thanks.
Response: 9.69

Prompt: Give pEC50 for the following binder: anti-GPNMB antibody GPN-93 (antibody, V domains shown) VH: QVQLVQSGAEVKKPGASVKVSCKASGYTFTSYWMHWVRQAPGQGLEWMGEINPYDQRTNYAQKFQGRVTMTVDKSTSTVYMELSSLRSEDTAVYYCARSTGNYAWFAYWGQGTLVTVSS VL: DIVMTQSPDSLAVSLGERATINCKTSQDVSPSLAWYQQKPGQPPKLLIYSASKRYTGVPDRFSGSGSGTDFTLTISSLQAEDVAVYYCQQHYSIPLQFGGGTKVEIK
Response: 9.25

Prompt: Give recorded pEC50. anti-GPNMB antibody GPN-88 (antibody, V domains shown) VH: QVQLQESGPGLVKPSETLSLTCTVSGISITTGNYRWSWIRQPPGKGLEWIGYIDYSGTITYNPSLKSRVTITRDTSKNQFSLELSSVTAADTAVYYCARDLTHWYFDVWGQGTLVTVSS VL: DIVMTQSPDSLAVSLGERATINCKSSRSVDYYGIGFLNWYQQKPGQPPKLLIYATSHQGSGVPDRFSGSGSGTDFTLTISSLQAEDVAVYYCQQQKHVPPTFGGGTKVEIK
Response: 9.72
